Entries and their Percent Control
- Test system: KIT(D816H)
- COND: Compound Concentration (nM):1000;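 also: KINOMEscan scanMAX binding as percent activity remaining versus control; lower means stronger binding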
QUANTITY_MEASURED: Percent Control

1. NS(=O)(=O)c1ccc(N/N=C2\C(=O)Nc3ccc(C(=O)NCc4ccncc4)cc32)cc1 [GW300657X] : 14%
2. COc1cc2ncnc(Nc3ccc4c(cnn4Cc4ccccc4)c3)c2cc1OC.Cl [GW282449A] : 100%
3. COc1ccc2[nH]c3c4[nH]c5ccc(OC)cc5c4c4c(c3c2c1)C(=O)NC4=O [GW296115X] : 6.6%
4. CCS(=O)(=O)c1ccc(OC)c(Nc2ncc(-c3cccc(F)c3)o2)c1 [GW621970X] : 51%

----------
- Tested on: TYK2(JH2domain-pseudokinase)
- COND: Compound Concentration (nM):1000
QUANTITY_MEASURED: Percent Control (%)

1. Cl.c1ccc(Cc2nc3ccc(Nc4ncnc5ccccc45)cc3[nH]2)cc1 [GR269666A] : 100
2. NS(=O)(=O)c1ccc(Nc2ncc(-c3ccccc3)o2)cc1 [GW572399X] : 100
3. COc1ccc2cc(-c3c(-c4ccncc4)nc(-c4ccc(S(C)(=O)=O)cc4C)n3C)ccc2c1 [SB-633825] : 100
4. COc1cc2ncn(-c3cc(O[C@H](C)c4ccccc4Cl)c(C(N)=O)s3)c2cc1OC [GSK237701A] : 97
5. COc1ccc(COc2ccc(Cc3cnc(N)nc3N)cc2OC)cc1 [GW632580X] : 100

----------
Each record here notes measured Percent Control.
- System: PKNB(M.tuberculosis)
- COND: 1 µM
QUANTITY_MEASURED: Percent Control (%)

1. CCn1c(-c2nonc2N)nc2c(C#CC(C)(C)O)nc(OCCNC)cc21.Cl [GSK949675] : 0.7
2. Cl.O=S1CCN(Cc2ccc(-c3ccc4ncnc(Nc5ccc(OCc6ccccc6)c(F)c5)c4c3)o2)CC1 [GW576924A] : 100
3. COc1cccc(-c2c[nH]c3c(N/N=C/c4ccncc4)ncnc23)c1 [GW814408X] : 99
4. Cl.O=C(O[C@H]1CN[C@H](C#Cc2cc3ncnc(Nc4ccc5c(cnn5Cc5ccccc5)c4)c3s2)C1)N1CCOCC1 [GSK200398A] : 91
5. COc1cc(N2CCN(C(C)C)CC2)ccc1Nc1nc(Nc2ccc(F)cc2C(=O)NC[C@@H](O)CO)c2cc[nH]c2n1 [GSK1392956A] : 99
6. NS(=O)(=O)c1ccc(N/N=C2\C(=O)Nc3ccc(C(=O)NCCc4c[nH]cn4)cc32)cc1 [GW300660X] : 92
7. CN1CCN(C(=O)c2ccc(NC(=O)Nc3ccc(N(C)c4ccnc(Nc5ccc(CS(C)(=O)=O)cc5)n4)cc3)cc2)CC1.Cl [GW830263A] : 87
8. NS(=O)(=O)c1ccc(N/N=C2\C(=O)Nc3ccc(C(=O)NCc4ccncc4)cc32)cc1 [GW300657X] : 100

----------
- Tested on: DYRK1A
- COND: Compound Concentration (nM):1000
QUANTITY_MEASURED: Percent Control (%)

1. NS(=O)(=O)c1ccc(N/N=C2\C(=O)Nc3ccc(-c4cnco4)cc32)cc1 : 2.5
2. COc1cc(N2CCN(C(C)C)CC2)ccc1Nc1nc(Nc2ccc(F)cc2C(=O)NC[C@@H](O)CO)c2cc[nH]c2n1 [GSK1392956A] : 53
3. C[C@@H](Oc1cc(-n2cnc3ccc(OC4CCN(C)CC4)cc32)sc1C(N)=O)c1ccccc1Cl [GSK579289A] : 100
4. CN1CCN(C(=O)c2ccc(NC(=O)Nc3ccc(N(C)c4ccnc(Nc5ccc(CS(C)(=O)=O)cc5)n4)cc3)cc2)CC1.Cl [GW830263A] : 62
5. COc1cc2ncnc(Nc3ccc4c(cnn4Cc4ccccc4)c3)c2cc1OC.Cl [GW282449A] : 100
6. O=C(Nc1n[nH]c2nc(-c3ccc(O)cc3)c(Br)cc12)C1CC1 : 24
7. Cc1cc(O)cc(C)c1/C=C/c1cncc(C(N)=O)c1 [GW435821X] : 93
8. NS(=O)(=O)c1ccc(N/N=C2\C(=O)Nc3ccc(C(=O)NCc4ccncc4)cc32)cc1 [GW300657X] : 63
